- Experimental Target: human GLP-1 receptor (human, UniProt P43220 24-463)
- Test Details: cell-based or functional assay
Bridge positions count the residues as written; N and C are the ends. Square brackets hold non-standard residues; d marks the D form. Ends that are not written are not given here. * marks the point of attachment. Acetyl(2-(4-imidazolyl)) = O=C(Cc1c[nH]cn1)*; Aib = CC(C)(N)C(=O)O
Values of In vitro activity compared to native-type peptide (%), vs GLP-1 greater than or equal to 8% map to True; values below map to False.

Some solved entries appear below for comparison.
| Binder | Answer Label |
| --- | --- |
| Y[Aib]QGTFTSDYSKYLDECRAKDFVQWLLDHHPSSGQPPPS (bridge 16-20) [triple agonist of SEQ ID NO: 66] | True |
| {Acetyl(2-(4-imidazolyl))}-[Aib]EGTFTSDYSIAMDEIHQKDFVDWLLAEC (bridge 15-19) [triple agonist of SEQ ID NO: 84] | False |
| HGQGTFTSDCSKYLDGQRAQDFVNWLLAGGPSSGAPPPS [triple agonist of SEQ ID NO: 48] | False |

Prompt: Please check the record H[Aib]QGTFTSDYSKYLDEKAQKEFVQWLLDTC (bridge 16-20) [triple agonist of SEQ ID NO: 30] and state if its In vitro activity compared to native-type peptide (%), vs GLP-1 is at or above 8%.
Completion: True
